Read-out: Peroxisomal acyl-coenzyme A oxidase 1 (ACOX1) gene, ACOX1 (gene 51)
Assay: LTEA_HepaRG_ACOX1: Life Technologies and Expression Analysis (LTEA) Assay for Peroxisomal acyl-coenzyme A oxidase 1 (ACOX1) gene using HepaRG (AID 2283467)
Condition context: mRNA level, 48 h; actives raise or lower the signal
The source made the active and inactive calls. The calls were made as follows: active = hit-call score of the fitted dose curve at least 0.9, where 1 is the maximum; inactive = score below 0.9.
Hi there, use one of these labels in your reply, thanks! true (active), false (inactive)

# example entries with known answers
Req: Given CC(C)(C)c1cc(/C=C2\SC(N)=NC2=O)cc(C(C)(C)C)c1O , state the outcome it received in this test.
Resp: true

Req: // same read-out, input: CN(C[C@@H](CC[N+]12CCC(C3CCCCC3)(CC1)CC2)c1ccc(Cl)c(Cl)c1)C(=O)c1cc(C(F)(F)F)cc(C(F)(F)F)c1
Resp: true

Continuing:
Req: Given Cc1cccc2ccccc12 , state the outcome it received in this test.
Resp: false

Req: // same read-out, input: CC(=O)N1CCN(c2ccc(OC[C@H]3CO[C@](Cn4ccnc4)(c4ccc(Cl)cc4Cl)O3)cc2)CC1
Resp: true

Req: // same read-out, input: C[C@]12CC[C@@H]3c4ccc(O)cc4CC[C@H]3[C@@H]1CCC2=O
Resp: false
